Listed compounds paired with reported ED50
Test system: tryptamine-induced bilateral tonic seizures and hyperaemia of the ears
Assay: Combined apomorphine-, tryptamine- and norepinephrine test in rats: tryptamine (TRY) part
Assay type: in vivo, adult male Wistar rats
Settings: Rattus norvegicus, 1.5 h; compound subcutaneously or orally; 40 mg/kg tryptamine i.v. at 90 minutes; bilateral tonic seizures; dose which protects 50% of the animals; read-out: Combined test in rats; ED₅₀ in mg/kg (TRY)-convulsions
Number only, in mg/kg; omit the unit.

Would you please look over these solved cases?
Cc1nc2ccccn2c(=O)c1CCN1CCN(c2n[nH]c3ccccc23)CC1 = 0.04
Cc1nc2scc(C)n2c(=O)c1CCN1CCN(c2n[nH]c3cc(F)ccc23)CC1 = 0.02
Cc1nc2n(c(=O)c1CCN1CCN(c3noc4cc(F)ccc34)CC1)CCCS2 = 0.08

Dear colleague, I am looking for the recorded ED50 of the following compound: Cc1nc2sccn2c(=O)c1CCN1CCN(c2noc3cc(F)ccc23)CC1
0.08

---

Test system: apomorphine (emesis)
Test: The apomorphine test in dogs (APO-dog)
Format: in vivo, beagle dogs
Settings: Canis lupus familiaris, 1 h; compound subcutaneously or orally; 0.31 mg/kg (s.c.) apomorphine one hour thereafter; dose which protects 50% of the animals from emesis; read-out: (APO)-dog test, ED₅₀ in mg/kg
Listed compounds paired with reported ED50

Would you please look over these solved cases?
Cc1nc2ccccn2c(=O)c1CCN1CCN(c2n[nH]c3ccccc23)CC1 = 0.03 mg/kg
Cc1nc2ccccn2c(=O)c1CCN1CCN(c2n[nH]c3cc(F)ccc23)CC1 = < 0.01 mg/kg
Cc1nc2n(c(=O)c1CCN1CCN(c3n[nH]c4cc(F)ccc34)CC1)CCCC2C (stereo not drawn) = 0.00045 mg/kg
Cc1nc2n(c(=O)c1CCN1CCN(c3noc4cc(F)ccc34)CC1)CCS2 = 0.07 mg/kg
Cc1nc2sccn2c(=O)c1CCN1CCN(c2noc3cc(F)ccc23)CC1 = 0.015 mg/kg
Cc1nc2n(c(=O)c1CCN1CCN(c3noc4ccccc34)CC1)CCS2 = 0.06 mg/kg
Cc1nc2ccccn2c(=O)c1CCN1CCN(c2nsc3ccccc23)CC1 = 0.45 mg/kg
Cc1nc2scc(C)n2c(=O)c1CCN1CCN(c2noc3cc(F)ccc23)CC1 = 0.03 mg/kg
Cc1nc2scc(C)n2c(=O)c1CCN1CCN(c2n[nH]c3cc(F)ccc23)CC1 = 0.0025 mg/kg
Cc1nc2n(c(=O)c1CCN1CCN(c3nsc4ccccc34)CC1)CCCC2C (stereo not drawn) = > 0.016 mg/kg

Next item in the queue.
Dear colleague, I am looking for the recorded ED50 of the following compound: Cc1nc2sccn2c(=O)c1CCN1CCN(c2noc3ccccc23)CC1
0.03 mg/kg

---

Test system: apomorphine (emesis)
Experiment: The apomorphine test in dogs (APO-dog)
Type: in vivo, beagle dogs
Settings: Canis lupus familiaris, 1 h; compound subcutaneously or orally; 0.31 mg/kg (s.c.) apomorphine one hour thereafter; dose which protects 50% of the animals from emesis; read-out: (APO)-dog test, ED₅₀ in mg/kg
endpoint name: ED50 (mg/kg)
Number only, in mg/kg; omit the unit.

Would you please look over these solved cases?
Cc1nc2n(c(=O)c1CCN1CCN(c3noc4cc(F)ccc34)CC1)CCCS2 [Compound 25] = 0.06
Cc1nc2n(c(=O)c1CCN1CCN(c3noc4cc(F)ccc34)CC1)CCCC2 [Compound 20] = 0.015
Cc1nc2n(c(=O)c1CCN1CCN(c3nsc4ccccc34)CC1)CCS2 [Compound 26] = 0.03
Cc1nc2ccccn2c(=O)c1CCN1CCN(c2noc3cc(F)ccc23)CC1 [Compound 15] = 0.015
Cc1nc2sccn2c(=O)c1CCN1CCN(c2n[nH]c3cc(F)ccc23)CC1 [Compound 63] = 0.001

apomorphine (emesis) / ED50 / Cc1nc2c(C)cccn2c(=O)c1CCN1CCN(c2n[nH]c3cc(F)ccc23)CC1 [Compound 47] : value?
0.001
